# experimentalDetails: chemical genetic growth profiling, strain panel (AID 1159580);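 note: tested at 20 µM; growth read once vehicle control cultures reached saturation at 30 °C; lower values mean less growth of the strain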
# runParameters: S. cerevisiae deletion strains, growth OD, locus YBR231C, strain swc5
Among all 5,500 compounds or so, about 2,000 (36%) were called active. Another 18% or so got no clear call; they are omitted. Cut-off read from the data, not from the text of the source: active = normalized growth mostly below about 0.91 (no sharp cut-off); inconclusive = no clear call, values can overlap the other calls; inactive = mostly above about 0.92. The list shows a part of the results.
Your reply should match one of these outcome classes. active, inactive

**Query** How did this test come out for CCCCCCCCCCC[C@@H](C[C@H]1OC(=O)[C@H]1CCCCCC)OC(=O)[C@@H](CC(C)C)NC=O ?
**Result** inactive

**Query** Also check Oc1cc(O)c2c(c1)O[C@H](c1ccc(O)c(O)c1)[C@H](O)C2
**Result** inactive

**Query** What do you have for O=c1c(-c2ccc(O)cc2)coc2cc(O)ccc12 ?
**Result** inactive

**Query** Follow-up entry: CCOC(=O)n1ccn(C)c1=S
**Result** inactive

**Query** Again, but for CN1C2CCC1CC(OC(c1ccccc1)c1ccccc1)C2 (configuration not stated)
**Result** inactive

**Query** Same again, this time with COc1ccc(-c2coc3cc(O)ccc3c2=O)c(OC)c1
**Result** inactive

**Query** // repeat for CCCc1cc(C(N)=S)ccn1 and report
**Result** inactive

**Query** What do we get for CCCCCCCCCCCCCc1ccco1 ?
**Result** inactive

**Query** Same again, this time with CC[C@]1(O)CC2CN(CCc3c([nH]c4ccccc34)[C@@](C(=O)OC)(c3cc4c(cc3OC)N(C)[C@H]3[C@@](O)(C(=O)OC)[C@H](OC(C)=O)[C@]5(CC)C=CCN6CC[C@]43[C@@H]65)C2)C1 (some centres not stated)
**Result** inactive

**Query** Also check CC(=O)O[C@H]1C[C@@H](OC(C)=O)C(C)(C)C2CC(=O)[C@]3(C)C(CC[C@@]4(C)[C@H](C(=O)O)OC(=O)C5OC543)[C@]21C (some centres not stated)
**Result** inactive

**Query** Next: COc1ccc(CN(CCN(C)C)c2ccccn2)cc1
**Result** inactive

**Query** O=C1C(Cl)=C(Cl)C(=O)C(Cl)=C1Cl , same question.
**Result** inactive

**Query** Proceed to CC[C@@H](C(=O)C(C)[C@@H](O)[C@H](C)CCc1ccc(C)c(O)c1C(=O)O)C1OC(CC)(C2CC[C@](O)(CC)[C@H](C)O2)C[C@@H]1C (some centres not stated)
**Result** inactive

**Query** What do you get for C/C=C(\C)C(=O)O[C@H]1C[C@@H](OC(C)=O)[C@@]2(C(=O)OC)CO[C@@H]3C2[C@]12CO[C@](O)(C(=O)OC)[C@H]2[C@](C)(C12O[C@@]1(C)[C@H]1C[C@@H]2OC2OC=C[C@@]21O)[C@@H]3O (some centres not stated) ?
**Result** inactive

**Query** Another compound to check: Cc1ccccc1C(OCCN(C)C)c1ccccc1 (configuration not stated)
**Result** inactive

**Query** Could you do the same for COc1cc([C@@H]2c3cc4c(cc3C(OC3O[C@@H]5COC(C)O[C@H]5[C@H](O)[C@H]3O)C3COC(=O)[C@@H]32)OCO4)cc(OC)c1O (some centres not stated) , please?
**Result** inactive

**Query** Then CN(C)CCOC(c1ccc(Cl)cc1)c1ccccn1 (configuration not stated) ?
**Result** inactive

**Query** // query: Clc1ccc(C(OCCN2CCCCC2)c2ccccc2)cc1 (configuration not stated)
**Result** inactive

**Query** For C=CCc1ccc(O)c(OC)c1 then?
**Result** active

**Query** Continue with Nc1nc(=S)c2[nH]cnc2[nH]1
**Result** inactive

**Query** Try this compound too: CCCCNC(=O)NS(=O)(=O)c1ccc(C)cc1
**Result** inactive

**Query** Same read-out for COC(=O)[C@@H]1OC(=O)C2OC23[C@@]1(C)CCC1[C@]2(C)C(C[C@H](O)[C@]13C)C(C)(C)[C@H](OC(C)=O)C[C@@H]2OC(C)=O (some centres not stated) ?
**Result** inactive
